- test: Toxicity against mouse RAW264.7 cells assessed as cell survival at 50 uM by SRB assay
- Assay type: cell-based
- protocol-conditions: read-out: Survival
reported-endpoint: viability at 50 µM (%)
Only the number, expressed in %, is required.

Exercise: Find the recorded viability at 50 µM belonging to CC1=C(C)C(=O)O[C@@H]([C@](C)(O)[C@]2(O)CC[C@@]3(O)[C@@H]4C[C@H](O)C5=CC=CC(=O)[C@]5(C)[C@H]4CC[C@]23C)C1 and report it.
Solution: 79.3

Exercise: Find the recorded viability at 50 µM belonging to CC(=O)OC1C[C@H](O)CC2=CC[C@H]3[C@@H]4CC[C@H]([C@@](C)(O)[C@@H](O)C[C@@H]5COC(=O)[C@@]5(C)O)[C@@]4(C)CC[C@@H]3[C@]21C (some centres not stated) and report it.
Solution: 100

Exercise: Find the recorded viability at 50 µM belonging to CC1=C(C)C(=O)O[C@@H]([C@](C)(O)[C@]2(O)CC[C@@]3(O)[C@@H]4C[C@H]5O[C@]56[C@@H](O)C=CC(=O)[C@]6(C)[C@H]4CC[C@]23C)C1 and report it.
Solution: 50.1

Exercise: Find the recorded viability at 50 µM belonging to CC1=C(C)C(=O)O[C@@H]([C@](C)(O)[C@]2(O)C[C@H](O)[C@@]3(O)[C@@H]4C[C@H](O)[C@@]5(O)CCCC(=O)[C@]5(C)[C@H]4CC[C@@]32C)C1 and report it.
Solution: 100

Exercise: Find the recorded viability at 50 µM belonging to CC1=C(C)C(=O)O[C@@H]([C@@](C)(O)[C@]2(O)CC[C@@]3(O)[C@@H]4C[C@@H](O)[C@@]5(O)CC=CC(=O)[C@]5(C)[C@H]4CC[C@]23C)C1 and report it.
Solution: 84.1

Exercise: Find the recorded viability at 50 µM belonging to CC1=C(CO)C[C@H]([C@](C)(O)[C@]2(O)CC[C@@]3(O)[C@@H]4C[C@@H](O)[C@@]5(O)CC=CC(=O)[C@]5(C)[C@H]4CC[C@]23C)OC1=O and report it.
Solution: 100

Exercise: Find the recorded viability at 50 µM belonging to CC1=C(C)C(=O)O[C@@H]([C@](C)(O)[C@]2(O)CC[C@@]3(O)[C@@H]4C[C@H]5O[C@]56[C@@H](O)[C@@H](O)CC(=O)[C@]6(C)[C@H]4CC[C@]23C)C1 and report it.
Solution: 100

* * *

- test: Toxicity against HEK293 cells assessed as cell survival at 50 uM
- Format: cell-based
- protocol-conditions: human, read-out: Survival
reported-endpoint: viability at 50 µM (%)
Only the number, expressed in %, is required.

Exercise: Find the recorded viability at 50 µM belonging to CC1=C(C)C(=O)O[C@@H]([C@](C)(O)C2=CC[C@@]3(O)[C@@H]4C[C@H]5O[C@]56[C@@H](O)CCC(=O)[C@]6(C)[C@H]4CC[C@]23C)C1 and report it.
Solution: 81.9

Exercise: Find the recorded viability at 50 µM belonging to CC1=C(C)C(=O)O[C@@H]([C@](C)(O)[C@]2(O)CC[C@@]3(O)[C@@H]4C[C@H](O)C5=CC=CC(=O)[C@]5(C)[C@H]4CC[C@]23C)C1 and report it.
Solution: 100

Exercise: Find the recorded viability at 50 µM belonging to CC1=C(C)C(=O)O[C@@H]([C@](C)(O)[C@]2(O)C[C@H](O)[C@@]3(O)[C@@H]4C[C@H](O)[C@@]5(O)CCCC(=O)[C@]5(C)[C@H]4CC[C@@]32C)C1 and report it.
Solution: 83.9

Exercise: Find the recorded viability at 50 µM belonging to CC(=O)OC1C[C@H](O)CC2=CC[C@H]3[C@@H]4CC[C@H]([C@@](C)(O)[C@@H](O)C[C@@H]5COC(=O)[C@@H]5C)[C@@]4(C)CC[C@@H]3[C@]21C (stereo not given in full) and report it.
Solution: 36.5

Exercise: Find the recorded viability at 50 µM belonging to CC1=C(C)C(=O)O[C@@H]([C@](C)(O)[C@]2(O)CC[C@@]3(O)[C@@H]4C[C@H]5O[C@]56[C@@H](O)C=CC(=O)[C@]6(C)[C@H]4CC[C@]23C)C1 and report it.
Solution: 88.6

Exercise: Find the recorded viability at 50 µM belonging to CC1=C(CO)C[C@H]([C@](C)(O)[C@]2(O)CC[C@@]3(O)[C@@H]4C[C@@H](O)[C@@]5(O)CC=CC(=O)[C@]5(C)[C@H]4CC[C@]23C)OC1=O and report it.
Solution: 81.6

Exercise: Find the recorded viability at 50 µM belonging to CC1=C(C)C(=O)O[C@@H]([C@](C)(O)[C@]2(O)CC[C@@]3(O)[C@@H]4C[C@H]5O[C@]56[C@@H](O)[C@@H](O)CC(=O)[C@]6(C)[C@H]4CC[C@]23C)C1 and report it.
Solution: 97.1

Exercise: Find the recorded viability at 50 µM belonging to CC(=O)OC1C[C@H](O)CC2=CC[C@H]3[C@@H]4CC[C@H]([C@@](C)(O)[C@@H](O)C[C@@H]5COC(=O)[C@@]5(C)O)[C@@]4(C)CC[C@@H]3[C@]21C (stereo not given in full) and report it.
Solution: 73.3

Exercise: Find the recorded viability at 50 µM belonging to CC1=C(C)C(=O)O[C@@H]([C@](C)(O)[C@]2(O)CC[C@@]3(O)[C@@H]4[C@@H](O)[C@@H](O)[C@@]5(O)CC=CC(=O)[C@]5(C)[C@H]4CC[C@]23C)C1 and report it.
Solution: 98.4

Exercise: Find the recorded viability at 50 µM belonging to CC1=C(C)C(=O)O[C@@H]([C@@](C)(O)[C@]2(O)CC[C@@]3(O)[C@@H]4C[C@@H](O)[C@@]5(O)CC=CC(=O)[C@]5(C)[C@H]4CC[C@]23C)C1 and report it.
Solution: 89.6
